System: HeLa
Assay: Cytotoxicity in HeLa cells (sulforhodamine B, 72 h)
Type: cell-based
Conditions: Human Cervical
pIC50: −log10 of the molar value.
Property: pIC50

[[record]]
compound_structure = "C=CCc1cccc(/C=N/NC(=O)CN2CCN(Cc3ccccc3)CC2)c1O"
reported_result = 4.81


----------
Test system: OSW
Assay: Cytotoxicity in OSW cells (sulforhodamine B, 72 h)
Assay type: cell-based
Settings: Canis lupus familiaris, Dog Lymphoma
pIC50: −log10 of the molar value.
Property: pIC50

[[record]]
molecule = "C=CCc1cccc(/C=N/NC(=O)CN2CCN(Cc3ccccc3)CC2)c1O [PAC-1]"
property = "pIC50"
reported_result = 5.07


----------
Assay: EGTA fluorescence titration assay (zinc binding)
Details: read-out: Zinc Binding (KD) nM
# Kd per entry
Property: Kd (nM)

[[record]]
compound_structure = "C=CCc1cccc(/C=N/NC(=O)CN2CCC(Cc3ccccc3)CC2)c1O"
reported_result = 50

[[record]]
compound_structure = "C=CCc1cccc(/C=N/NC(=O)CN2CCN(Cc3cc(OC)ccc3OC)CC2)c1O"
reported_result = 36

[[record]]
compound_structure = "C=CCc1cccc(/C=N/NC(=O)CN2CCN(Cc3ccccn3)CC2)c1O"
reported_result = 76

[[record]]
compound_structure = "C=CCc1cccc(/C=N/NC(=O)CN2CCN(Cc3cccc(Cn4cc(CNC(=O)Cc5c(C)c6cc(S(=O)(=O)O)c(N)cc6oc5=O)nn4)c3)CC2)c1O"
reported_result = 61

[[record]]
compound_structure = "C=CCc1cccc(/C=N/NC(=O)CN2CCN(Cc3ccc(OC)cc3)CC2)c1O"
reported_result = 41

[[record]]
compound_structure = "C=CCc1cccc(/C=N/NC(=O)CN2CCN(Cc3ccc(F)cc3)CC2)c1O"
reported_result = 96


Source: patent US9643960B2
